Test: Aqueous (thermodynamic) solubility
Type: physicochemical
Conditions: thermodynamic from solid, water, 20°C, read-out: Water Solub.
Procedure: Each solid compound (1 mg) was added to 1 mL of water. Each sample was mixed at 20°C, in a shaker water bath for 24 h. The resulting suspension was filtered through a 0.45 μm nylon filter (Acrodisc). The concentration of solubilized compounds weres determined by UV/LC-MS (performed in triplicate) by comparison with the appropriate calibration curve that was obtained from samples of the compound dissolved in methanol at different concentrations.
MEASURED_PROPERTY: solubility at 24 h (µg/mL)
The reply should be a number in µg/mL, with the unit left off.

Study these solved cases before continuing.
O=C(O)c1ccc(-c2ccc(/C=C3\SC(=S)N(Cc4ccc(Cl)cc4)C3=O)o2)cc1O [Compound 2] : 0.52
O=C(O)c1ccc(-c2ccc(/C=C3\SC(=S)N(Cc4ccc(Cl)c(F)c4)C3=O)o2)cc1O [Compound 9f] : 0.73
O=C(O)c1ccc(-c2ccc(/C=C3\SC(=S)N(Cc4ccc(F)cc4)C3=O)o2)cc1O [Compound 1] : 0.88
CCc1ccc(CCN2C(=O)/C(=C/c3ccc(-c4ccc(C(=O)O)c(O)c4)o3)SC2=S)cc1 [Compound 9d] : 0.25

Exercise: Report measured solubility at 24 h; entry is O=C(O)c1ccc(-c2ccc(/C=C3\SC(=S)N(CCCc4ccccc4)C3=O)o2)cc1O [Compound 9c]
Solution: 0.3

Exercise: Dear colleague, please send me the reported solubility at 24 h for O=C(O)c1ccc(-c2ccc(/C=C3\SC(=S)N(CCc4ccc(F)cc4)C3=O)o2)cc1O [Compound 9a] when you can.
Solution: 0.54

Exercise: Provide measured solubility at 24 h value, entry: O=C(O)c1ccc(-c2ccc(/C=C3\SC(=S)N(c4ccc(F)c(Cl)c4)C3=O)o2)cc1O [Compound 9e]
Solution: 0.72

Exercise: Indicate its recorded solubility at 24 h; the compound in question is Cc1ccc(CCN2C(=O)/C(=C/c3ccc(-c4ccc(C(=O)O)c(O)c4)o3)SC2=S)cc1 [Compound 9b]
Solution: 0.1
